Consider the following molecules and their measured mass density readings.
- setupConditions: 303.15 K; 101.33 kPa; Liquid; Vibrating tube method
Give just the number in kg/m3; leave the unit off.

Past entries and their recorded results:
CCCCN 728.477
CCCCN(CCCC)CCCC 770.183
CCCCNCCCC 752.284

Now consider a different molecule.
For `CCCCCCOCCOCCO` the molecule record lists mass density as 924.931

* * *

- setupConditions: 288.15 K; 101.33 kPa; Liquid; Vibrating tube method
Consider the following compounds and their measured mass density readings.
Give just the number in kg/m3; leave the unit off.

Past entries and their recorded results:
CCCCN 742.865
CCCCCCOCCOCCO 936.901
CCCCNCCCC 766.115

Now consider a different compound.
For `CCCCN(CCCC)CCCC` the compound record lists mass density as 781.336

* * *

- setupConditions: 308.15 K; 101.33 kPa; Liquid; Vibrating tube method
assayMetric: mass density (kg/m3)
Give just the number in kg/m3; leave the unit off.

Past entries and their recorded results:
CCCCN 723.625
CCCCN(CCCC)CCCC 766.44
CCCCNCCCC 748.17

Now consider a different molecule.
For `CCCCCCOCCOCCO` the molecule record lists mass density as 920.933

* * *

- setupConditions: 303.15 K; 101.33 kPa; Liquid; Sing-around technique in a fixed-path interferometer
assayMetric: speed of sound (m/s)
Give just the number in m/s; leave the unit off.

CCCCN(CCCC)CCCC 1229
CCCCCCOCCOCCO 1354.3
CCCCN 1228.9

For `CCCCNCCCC` the molecule record lists speed of sound as 1226.7

* * *

- setupConditions: 288.15 K; 101.33 kPa; Liquid; Sing-around technique in a fixed-path interferometer
Consider the following compounds and their measured speed of sound readings.
Give just the number in m/s; leave the unit off.

CCCCNCCCC 1289.2

For `CCCCCCOCCOCCO` the compound record lists speed of sound as 1405.2

For `CCCCN` the compound record lists speed of sound as 1296.1

For `CCCCN(CCCC)CCCC` the compound record lists speed of sound as 1285

* * *

- setupConditions: 293.15 K; 101.33 kPa; Liquid; Sing-around technique in a fixed-path interferometer
Consider the following compounds and their measured speed of sound readings.
Give just the number in m/s; leave the unit off.

Past entries and their recorded results:
CCCCN(CCCC)CCCC 1266.4
CCCCCCOCCOCCO 1388.1
CCCCN 1273.6

Now consider a different compound.
For `CCCCNCCCC` the compound record lists speed of sound as 1269.5

* * *

- setupConditions: 293.15 K; 101.33 kPa; Liquid; Vibrating tube method
Numbers after ± are expanded uncertainties.
assayMetric: mass density

Past entries and their recorded results:
compound	measuredResult
CCCCN [1-butanamine]	738.096 ± 0.58 kg/m3
CCCCNCCCC [dibutylamine]	762.022 ± 2.1 kg/m3
CCCCCCOCCOCCO [2-(2-hexyloxyethoxy)ethanol]	932.917 ± 0.76 kg/m3

Now consider a different compound.
For CCCCN(CCCC)CCCC [tributylamine] the compound record lists mass density as 777.632 ± 0.61 kg/m3

* * *

- setupConditions: 308.15 K; 101.33 kPa; Liquid; Sing-around technique in a fixed-path interferometer
assayMetric: speed of sound (m/s)
Give just the number in m/s; leave the unit off.

Past entries and their recorded results:
molecule	unitSpec	speed of sound
CCCCN(CCCC)CCCC [tributylamine]	m/s	1210.4
CCCCNCCCC [dibutylamine]	m/s	1207
CCCCN [1-butanamine]	m/s	1205.7

Now consider a different molecule.
For CCCCCCOCCOCCO [2-(2-hexyloxyethoxy)ethanol] the molecule record lists speed of sound as 1337.7

* * *

- setupConditions: 298.15 K; 101.33 kPa; Liquid; Sing-around technique in a fixed-path interferometer
assayMetric: speed of sound (m/s)
Give just the number in m/s; leave the unit off.

CCCCCCOCCOCCO 1371.1
CCCCN 1250

For `CCCCN(CCCC)CCCC` the compound record lists speed of sound as 1247.6

For `CCCCNCCCC` the compound record lists speed of sound as 1246.7

* * *

- setupConditions: 298.15 K; 101.33 kPa; Liquid; Vibrating tube method
assayMetric: mass density (kg/m3)
Give just the number in kg/m3; leave the unit off.

compound	mass density, kg/m3
CCCCN [1-butanamine]	733.301
CCCCNCCCC [dibutylamine]	757.784
CCCCCCOCCOCCO [2-(2-hexyloxyethoxy)ethanol]	928.926

Now consider a different compound.
For CCCCN(CCCC)CCCC [tributylamine] the compound record lists mass density as 773.913
